Attribution: paper PMC6166781

TARGET OR SYSTEM: α5TMD T287K (chimeric GABAAR, β3 subunit ECD fused to α5 subunit TMD) (Homo sapiens, UniProt P28472, A271S/A273P/A277V/D270E/DELINS289-473LSISARNSLPKVAYAKAMDWFIAVCYAFVFSALIEFATVNYFTKSQPARAAKIDKMSRIVFPVLFGTFNLVYWATYLNREPVIKGAASPK/I247V/I257T/I267L/I280V/L248I/L256M/L278F/M252L/S254C/S272V/T258V/V276T/W262Q/Y269R)
MEASUREMENT CONTEXT: EC50 of potentiation of histamine EC10-15 responses, Fig. 1e; n = 6
MEASUREMENT TYPE: EC50

Prompt: Can you look up the measured EC50 of CC(=O)[C@H]1CC[C@H]2[C@@H]3CC[C@@H]4C[C@H](O)CC[C@]4(C)[C@H]3CC[C@]12C for me?
Response: 1300 nM

====

TARGET OR SYSTEM: α5TMD T287K T309A (Homo sapiens, UniProt P28472, A271S/A273P/A277V/D270E/DELINS289-473LSISARNSLPKVAYAKAMDWFIAVCYAFVFSALIEFAAVNYFTKSQPARAAKIDKMSRIVFPVLFGTFNLVYWATYLNREPVIKGAASPK/I247V/I257T/I267L/I280V/L248I/L256M/L278F/M252L/S254C/S272V/T258V/V276T/W262Q/Y269R)
MEASUREMENT TYPE: pEC50
Numbers only, as −log10 of the molar value.

Prompt: Can you look up the measured pEC50 of CC(=O)[C@H]1CC[C@H]2[C@@H]3CC[C@@H]4C[C@H](O)CC[C@]4(C)[C@H]3CC[C@]12C for me?
Response: 5.66
